Reference for the values: ChEMBL document CHEMBL4418299

Target: Macrophage colony-stimulating factor 1 receptor (Homo sapiens, UniProt P07333)
Sequence (P07333 whole entry, the tested form may be a part): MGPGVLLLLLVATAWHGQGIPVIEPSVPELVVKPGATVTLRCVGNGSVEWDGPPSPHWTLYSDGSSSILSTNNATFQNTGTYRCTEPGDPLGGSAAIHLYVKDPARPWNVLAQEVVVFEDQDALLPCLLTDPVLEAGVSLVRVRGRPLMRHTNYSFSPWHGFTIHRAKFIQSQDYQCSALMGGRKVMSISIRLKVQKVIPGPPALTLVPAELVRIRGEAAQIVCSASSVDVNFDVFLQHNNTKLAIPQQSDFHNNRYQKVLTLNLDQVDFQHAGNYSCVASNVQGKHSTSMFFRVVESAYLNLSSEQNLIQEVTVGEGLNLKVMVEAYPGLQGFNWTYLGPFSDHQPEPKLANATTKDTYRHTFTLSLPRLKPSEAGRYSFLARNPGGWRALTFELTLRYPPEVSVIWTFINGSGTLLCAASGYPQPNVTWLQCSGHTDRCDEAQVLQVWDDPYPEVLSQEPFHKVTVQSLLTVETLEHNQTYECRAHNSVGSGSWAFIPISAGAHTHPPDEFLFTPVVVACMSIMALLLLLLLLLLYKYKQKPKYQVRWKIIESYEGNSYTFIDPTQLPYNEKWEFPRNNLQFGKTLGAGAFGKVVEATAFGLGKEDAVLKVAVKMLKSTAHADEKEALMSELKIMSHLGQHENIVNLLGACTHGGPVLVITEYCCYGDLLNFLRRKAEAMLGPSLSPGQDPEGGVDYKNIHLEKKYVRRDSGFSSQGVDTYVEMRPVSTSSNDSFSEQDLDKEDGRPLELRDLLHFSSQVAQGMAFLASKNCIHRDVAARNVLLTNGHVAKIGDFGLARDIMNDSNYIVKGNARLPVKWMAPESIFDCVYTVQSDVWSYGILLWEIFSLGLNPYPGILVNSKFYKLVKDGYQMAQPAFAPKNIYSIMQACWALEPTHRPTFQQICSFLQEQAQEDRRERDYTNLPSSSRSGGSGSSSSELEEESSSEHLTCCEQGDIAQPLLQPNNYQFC
Assay: Displacement of kinase tracer 236 from recombinant human His-tagged CSF1R cytoplasmic domain (538 to 910 residues) expressed in baculovirus-infected insect cells measured after 5 hrs by TR-FRET based LanthaScreen assay
pIC50: −log10 of the molar value.

compound: Cn1ccc(CC(=O)Nc2ccc(-n3c4c(c5ncnc(N)c53)CCC4)cc2)n1
study.system: Macrophage colony-stimulating factor 1 receptor (Homo sapiens, UniProt P07333)
pIC50: < 6.70

compound: COc1cc(-n2c3c(c4ncnc(N)c42)CCC3)ccc1NC(=O)Cc1ccnc(C(F)(F)F)n1
study.system: Macrophage colony-stimulating factor 1 receptor (Homo sapiens, UniProt P07333)
pIC50: 6.70 to 8.00

compound: Nc1ncnc2c3c(n(-c4ccc(NC(=O)Cn5ccc(C(F)(F)F)n5)cc4)c12)CCC3
study.system: Macrophage colony-stimulating factor 1 receptor (Homo sapiens, UniProt P07333)
pIC50: > 8.00

compound: COc1ccc(CC(=O)Nc2ccc(-n3c4c(c5ncnc(N)c53)CCC4)cc2F)c(F)c1
study.system: Macrophage colony-stimulating factor 1 receptor (Homo sapiens, UniProt P07333)
pIC50: 6.70 to 8.00

compound: COc1cc(-n2c3c(c4ncnc(N)c42)CCC3)ccc1NC(=O)Cc1ccc2c(ccn2C)c1
study.system: Macrophage colony-stimulating factor 1 receptor (Homo sapiens, UniProt P07333)
pIC50: > 8.00

compound: COc1ccc(NC(=O)Cc2ccc(-n3c4c(c5ncnc(N)c53)CCC4)cc2OC)c(F)c1
study.system: Macrophage colony-stimulating factor 1 receptor (Homo sapiens, UniProt P07333)
pIC50: > 8.00

compound: COc1cc(-n2c3c(c4ncnc(N)c42)COC3)ccc1NC(=O)Cc1cnn(C)c1C(F)(F)F
study.system: Macrophage colony-stimulating factor 1 receptor (Homo sapiens, UniProt P07333)
pIC50: < 6.70

compound: Nc1ncnc2c3c(n(-c4ccc(NC(=O)Cc5ccc6c(c5)CCN6CC(F)(F)F)cc4)c12)CCC3
study.system: Macrophage colony-stimulating factor 1 receptor (Homo sapiens, UniProt P07333)
pIC50: > 8.00

compound: COc1cc(CC(=O)Nc2ccc(-n3c4c(c5ncnc(N)c53)CCC4)cc2)ccc1C
study.system: Macrophage colony-stimulating factor 1 receptor (Homo sapiens, UniProt P07333)
pIC50: > 8.00

compound: Nc1ncnc2c3c(n(-c4ccc(NC(=O)Cc5ccc(Cl)cc5F)cc4)c12)CCC3
study.system: Macrophage colony-stimulating factor 1 receptor (Homo sapiens, UniProt P07333)
pIC50: > 8.00

compound: COc1cc(-n2c3c(c4ncnc(N)c42)CCC3)ccc1CC(=O)Nc1ccc(Cl)c(C(F)(F)F)c1
study.system: Macrophage colony-stimulating factor 1 receptor (Homo sapiens, UniProt P07333)
pIC50: > 8.00

compound: Nc1ncnc2c3c(n(-c4ccc(NC(=O)Cc5ccc(Cl)c(C(F)(F)F)c5)cc4)c12)CCC3
study.system: Macrophage colony-stimulating factor 1 receptor (Homo sapiens, UniProt P07333)
pIC50: 7.85

compound: COc1cc(-n2c3c(c4ncnc(N)c42)CCC3)ccc1CC(=O)Nc1ccc(C(C)(C)C)cc1
study.system: Macrophage colony-stimulating factor 1 receptor (Homo sapiens, UniProt P07333)
pIC50: > 8.00

compound: Nc1ncnc2c3c(n(-c4ccc(NC(=O)[C@@H](N)Cc5ccccc5)cc4)c12)CCC3
study.system: Macrophage colony-stimulating factor 1 receptor (Homo sapiens, UniProt P07333)
pIC50: < 6.70

compound: COc1cc(-n2c3c(c4ncnc(N)c42)CCC3)ccc1CC(=O)Nc1ccn(C)n1
study.system: Macrophage colony-stimulating factor 1 receptor (Homo sapiens, UniProt P07333)
pIC50: < 6.70

compound: COc1cc(-n2c3c(c4ncnc(N)c42)CCC3)ccc1NC(=O)Cc1cnn(C(F)F)c1
study.system: Macrophage colony-stimulating factor 1 receptor (Homo sapiens, UniProt P07333)
pIC50: > 8.00

compound: COc1cc(-n2c3c(c4ncnc(N)c42)CCC3)ccc1NC(=O)Cc1ccc2c(c1)CN(C)C2=O
study.system: Macrophage colony-stimulating factor 1 receptor (Homo sapiens, UniProt P07333)
pIC50: < 6.70

compound: Nc1ncnc2c3c(n(-c4ccc(NC(=O)Cc5ccnc(C(F)(F)F)c5)cc4)c12)CCC3
study.system: Macrophage colony-stimulating factor 1 receptor (Homo sapiens, UniProt P07333)
pIC50: > 8.00
